A collection of compounds and their measured cell viability
System: UCD52 (cells of a triple-negative basal-like breast cancer xenograft)
Assay Summary: cell viability (% of vehicle); higher = less cytotoxic;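 also: PDX cells carrying CMV promoter-driven luciferase, viability read as total photon flux per second by IVIS imaging following D-luciferin, vehicle control 0.1% DMSO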
Settings: 10 µM; 72 h
Lab note: record the figure alone, no unit after it.

Please give the documented cell viability of O=C1CCC(N2C(=O)c3ccccc3C2=O)C(=O)N1 (centres undefined) [Thalidomide] 102

Please give the documented cell viability of NC(=O)c1cn(Cc2c(F)cccc2F)nn1 [Rufinamide] 96.9

Please give the documented cell viability of C=CC1=C(C(=O)O)N2C(=O)C(NC(=O)C(=NO)c3csc(N)n3)C2SC1 (centres undefined) 96.6

Turning now to a further compound:
Please give the documented cell viability of Cl.Nc1ccn(C2OC(CO)C(O)C2O)c(=O)n1 (centres undefined) [Cytarabine hydrochloride] 105

====

System: HCI03 (cells of an ER-positive luminal breast cancer xenograft)
Assay Summary: cell viability (% of vehicle); higher = less cytotoxic
Settings: 10 µM; 72 h
A collection of compounds and their measured cell viability
Lab note: record the figure alone, no unit after it.

Example cases with answers are listed next.
Please give the documented cell viability of CCCCC1C(=O)N(c2ccccc2)N(c2ccccc2)C1=O 129

Please give the documented cell viability of CCNC1(C(N)=O)CCN(c2ncnc3c2nc(-c2ccccc2Cl)n3-c2ccc(Cl)cc2)CC1.Cl 86

Please give the documented cell viability of CNCC(O)c1ccc(O)c(O)c1.O=C(O)C(O)C(O)C(=O)O (centres undefined) [Epinephrine Bitartrate] 96.3

Turning now to a further compound:
Please give the documented cell viability of COC(=O)C1=C(C)NC(C)=C(C(=O)OCCN(C)Cc2ccccc2)C1c1cccc([N+](=O)[O-])c1.Cl (centres undefined) [Nicardipine HCl] 99.9

====

A collection of compounds and their measured cell viability
Tested on: HCI01 (cells of a triple-negative basal-like breast cancer xenograft)
Assay Summary: cell viability (% of vehicle); higher = less cytotoxic
Settings: 10 µM; 72 h
Lab note: record the figure alone, no unit after it.

Example cases with answers are listed next.
Look up and report measured cell viability (HCI01) for the following compound: Cc1cc(C)cc(OCC2CNC(=O)O2)c1 (stereo unspecified) 100

Look up and report measured cell viability (HCI01) for the following compound: Cn1c(=O)c2[nH]cnc2n(C)c1=O.Cn1c(=O)c2[nH]cnc2n(C)c1=O.NCCN 98

Look up and report measured cell viability (HCI01) for the following compound: Cc1cccn2c(=O)c(-c3nnn[n-]3)cnc12.[K+] 98

Continuing:
Look up and report measured cell viability (HCI01) for the following compound: CNCCC(Oc1ccc(C(F)(F)F)cc1)c1ccccc1.Cl (stereo unspecified) [Fluoxetine HCl] 98.1

Look up and report measured cell viability (HCI01) for the following compound: Br.CN(C)CCC[C@]1(c2ccc(F)cc2)OCc2cc(C#N)ccc21 [Citalopram hydrobromide] 103

Look up and report measured cell viability (HCI01) for the following compound: CCN(CCCc1ccccc1)CCCc1ccccc1.O=C(O)CC(O)(CC(=O)O)C(=O)O [Alverine Citrate] 99.4

====

Test system: HCI13 (cells of an ER-positive luminal breast cancer xenograft)
Assay Summary: cell viability (% of vehicle); higher = less cytotoxic
Settings: 10 µM; 72 h
Measured Property: cell viability
Lab note: record the figure alone, no unit after it.

Example cases with answers are listed next.
Please give the documented cell viability of CCc1cccc2c3c([nH]c12)C(CC)(CC(=O)O)OCC3 (stereo not given) 97.3

Please give the documented cell viability of CC(C(=O)O)c1cccc(Oc2ccccc2)c1 (stereo not given) [Fenoprofen calcium hydrate] 101

Please give the documented cell viability of Cc1ccnc(NS(=O)(=O)c2ccc(N)cc2)n1 103

Please give the documented cell viability of CCC(CC)C(NC(C)=O)C1C(N=C(N)N)CC(C(=O)O)C1O (stereo not given) 102

Turning now to a further molecule:
Please give the documented cell viability of CCCNC1CCc2nc(N)sc2C1.Cl.Cl.O (stereo not given) [Pramipexole 2HCl Monohydrate] 97.4

====

A collection of molecules and their measured cell viability
Tested on: UCD52
Assay Summary: cell viability (% of vehicle); higher = less cytotoxic
Settings: 10 µM; 72 h

Please give the documented cell viability of CN(C)CCCOc1nn(Cc2ccccc2)c2ccccc12.Cl [Benzydamine HCl] 100

Please give the documented cell viability of C[N+](C)(C)CC(=O)[O-] 106

Continuing:
Please give the documented cell viability of COCCCOc1ccnc(C[S+]([O-])c2nc3ccccc3[nH]2)c1C (stereo unspecified) [Rabeprazole sodium] 178

Please give the documented cell viability of Cc1c(-c2cnccn2)ssc1=S 94.8

Please give the documented cell viability of CN=C(NC#N)NCCSCc1nc[nH]c1C 88.1

Please give the documented cell viability of NC(=O)C(CCC(F)(F)F)N(Cc1ccc(-c2ncon2)cc1F)S(=O)(=O)c1ccc(Cl)cc1 (stereo unspecified) 81.6

====

A collection of molecules and their measured cell viability
Test system: HCI09 (cells of a triple-negative luminal androgen receptor type breast cancer xenograft)
Assay Summary: cell viability (% of vehicle); higher = less cytotoxic
Settings: 10 µM; 72 h
Lab note: record the figure alone, no unit after it.

Please give the documented cell viability of CCCCCCCCCCCCCCCCCCCCCCO 82.5

====

Test system: UCD52
Assay Summary: cell viability (% of vehicle); higher = less cytotoxic
Settings: 10 µM; 72 h
Grouping key: cell viability. Bins: b0: < 80; b1: ≥ 80 and < 100; b2: ≥ 100

Categorize the following entry: OC(Cn1cncn1)(Cn1cncn1)c1ccc(F)cc1F [Fluconazole] b0

Continuing:
Categorize the following entry: CCS(=O)(=O)CCn1c([N+](=O)[O-])cnc1C [Tinidazole] b1

Categorize the following entry: CC1(C)O[C@@H]2C[C@H]3[C@@H]4CCC5=CC(=O)CC[C@]5(C)[C@@]4(F)[C@@H](O)C[C@]3(C)[C@]2(C(=O)CCl)O1 [Halcinonide] b2

Categorize the following entry: NC(=O)Cc1cccc(C(=O)c2ccccc2)c1N [Nepafenac] b2

====

System: HCI11 (cells of an ER-positive luminal breast cancer xenograft)
Assay Summary: cell viability (% of vehicle); higher = less cytotoxic
Settings: 10 µM; 72 h
Where a name gives a salt, the structure may show the parent alone.
Measured Property: cell viability
Lab note: record the figure alone, no unit after it.

Please give the documented cell viability of CC1(c2nc3c(C(N)=O)cccc3[nH]2)CCCN1 (stereo not given) 100

Continuing:
Please give the documented cell viability of CCCc1nc(C)c2c(=O)nc(-c3cc(S(=O)(=O)N4CCN(CC)CC4)ccc3OCC)[nH]n12 97.3

Please give the documented cell viability of Cc1cc(=O)n(-c2ccccc2)n1C [Antipyrine] 103

Please give the documented cell viability of CN1CCCN=C1C=Cc1cccs1.O=C(O)c1cc2ccccc2c(Cc2c(O)c(C(=O)O)cc3ccccc23)c1O [Pyrantel Pamoate] 101

Please give the documented cell viability of COc1ccc(-c2ccc3cc(C(=O)O)ccc3c2)cc1C12CC3CC(CC(C3)C1)C2 [Adapalene sodium salt] 98.3

====

A collection of compounds and their measured cell viability
Tested on: WHIM30 (cells of a triple-negative basal-like breast cancer xenograft)
Assay Summary: cell viability (% of vehicle); higher = less cytotoxic
Settings: 10 µM; 72 h
Lab note: record the figure alone, no unit after it.

Example cases with answers are listed next.
Please give the documented cell viability of COc1cc(C2Oc3cc(C4Oc5cc(O)cc(O)c5C(=O)C4O)ccc3OC2CO)ccc1O (configuration not stated) [Silymarin] 91.7

Please give the documented cell viability of O=C(Nc1cccc2c(=O)cc(-c3nn[nH]n3)oc12)c1ccc(OCCCCc2ccccc2)cc1 [Pranlukast] 152

Please give the documented cell viability of C[N+](C)(C)CCO.[Cl-] [Choline Chloride] 101

Please give the documented cell viability of CCCCN1CCCCC1C(=O)Nc1c(C)cccc1C.Cl (configuration not stated) [Bupivacaine HCl] 117

Please give the documented cell viability of CC(=O)OCC(=O)C1(O)C(C)CC2C3CCC4=CC(=O)C=CC4(C)C3(F)C(O)CC21C (configuration not stated) [Dexamethasone acetate] 149

Please give the documented cell viability of CC(=O)OCC(=O)[C@@]12N=C(C)O[C@@H]1C[C@H]1[C@@H]3CCC4=CC(=O)C=C[C@]4(C)[C@H]3[C@@H](O)C[C@@]12C [Deflazacort] 145

Turning now to a further compound:
Please give the documented cell viability of CNCC(O)c1ccc(O)c(O)c1 [L-Adrenaline] 162

====

Test system: HCI09
Assay Summary: cell viability (% of vehicle); higher = less cytotoxic
Settings: 10 µM; 72 h
Measured Property: cell viability
Lab note: record the figure alone, no unit after it.

Please give the documented cell viability of OCCN(CCO)c1nc(N2CCCCC2)c2nc(N(CCO)CCO)nc(N3CCCCC3)c2n1 87.4

Please give the documented cell viability of CC(=O)O.CC(O)C(CO)NC(=O)C1CSSCC(NC(=O)C(N)Cc2ccccc2)C(=O)NC(Cc2ccccc2)C(=O)NC(Cc2c[nH]c3ccccc23)C(=O)NC(CCCCN)C(=O)NC(C(C)O)C(=O)N1 (centres undefined) [Octreotide acetate] 87.9

Please give the documented cell viability of CC(C=CC1=C(C)CCCC1(C)C)=CC=CC(C)=CC(=O)O 91.7

Continuing:
Please give the documented cell viability of C[N+]1(C)C2CCC1CC(OC(=O)C(O)c1ccccc1)C2.[Br-] (centres undefined) [Homatropine Methylbromide] 89.8
